// provenance: patent US11083707B2

System: DENV-2 16681 strain
measurement description: DENV-2 antiviral assay (eGFP fluorescence, Vero cells)
Format: cell-based, Dengue virus
applied conditions: DENV-2 16681 eGFP, MOI 0.5, 3 days
pEC50: −log10 of the molar value.
readout type: pEC50

INSERT INTO results (molecule, readout_type, quantitative_readout) VALUES
  ('COc1cc(NC(C(=O)N2CCc3cc(F)c(OC(F)(F)F)cc32)c2ccc(Cl)cc2OCCO)cc(-n2cncn2)c1 (single isomer, unassigned) [Compound 9B]', 'pEC50', 9.22),
  ('COc1cc(NC(C(=O)N2CCc3cc(F)c(OC(F)(F)F)cc32)c2ccc(Cl)cc2OCCCC(=O)O)cc(-n2cncn2)c1 (single isomer, unassigned) [Compound 15A]', 'pEC50', 8.28),
  ('COc1cc(NC(C(=O)N2CCc3ccc(C(F)(F)F)cc32)c2ccc(F)cc2OCCO)cc(-n2cncn2)c1 (single isomer, unassigned) [Compound 1B]', 'pEC50', 8.55),
  ('COc1cc(NC(C(=O)N2CCc3ccc(OC(F)(F)F)cc32)c2ccc(Cl)cc2OCCCC(=O)O)cc(-n2cncn2)c1 (single isomer, unassigned) [Compound 13A]', 'pEC50', 9.92),
  ('COc1cc(NC(C(=O)N2CCc3ccc(OC(F)(F)F)cc32)c2ccc(Cl)cc2OCCO)cc(-n2cncn2)c1 (single isomer, unassigned) [Compound 6A]', 'pEC50', 9.23);

###

Test system: Vero cells
applied conditions: African green monkey
Strictly below 9 µM in CC50: label 1. Otherwise: label 0.

INSERT INTO assay_data (compound, answer_label) VALUES
  ('COc1cc(NC(C(=O)N2CCc3ccc(OC(F)(F)F)cc32)c2ccc(F)cc2OCCO)cc(-n2cncn2)c1 (single isomer, unassigned)', 'label 1'),
  ('COc1cc(NC(C(=O)N2CCc3ccc(C(F)(F)F)cc32)c2ccc(Cl)cc2OCCO)cc(-n2cncn2)c1 (single isomer, unassigned)', 'label 0'),
  ('COc1cc(NC(C(=O)N2CCc3ccc(C(F)(F)F)cc32)c2ccc(F)cc2OCCO)cc(-n2cncn2)c1 (single isomer, unassigned)', 'label 0'),
  ('COc1cc(NC(C(=O)N2CCc3c(C)cc(OC(F)(F)F)cc32)c2ccc(Cl)cc2OCCCC(=O)O)cc(-n2cncn2)c1 (single isomer, unassigned) [Compound 16B]', 'label 1');

###

A collection of molecules and their measured CC50
Test system: Vero cells
applied conditions: African green monkey
readout type: CC50 (µM)

INSERT INTO results (molecule, readout_type, quantitative_readout) VALUES
  ('COc1cc(NC(C(=O)N2CCc3cc(OC)c(C(F)(F)F)cc32)c2ccc(Cl)cc2OCCCC(=O)O)cc(-n2cncn2)c1 (single isomer, unassigned) [Compound 12B]', 'CC50', 12),
  ('COc1cc(NC(C(=O)N2CCc3c(C)cc(OC(F)(F)F)cc32)c2ccc(Cl)cc2OCCO)cc(-n2cncn2)c1 (single isomer, unassigned) [Compound 10B]', 'CC50', 11),
  ('COc1cc(NC(C(=O)N2CCc3cc(F)c(OC(F)(F)F)cc32)c2ccc(Cl)cc2OCCCC(=O)O)cc(-n2cncn2)c1 (single isomer, unassigned) [Compound 15B]', 'CC50', 11),
  ('COc1cc(NC(C(=O)N2CCc3cc(OC)c(OC(F)(F)F)cc32)c2ccc(Cl)cc2OCCO)cc(-n2cncn2)c1 (single isomer, unassigned)', 'CC50', 12);

###

System: DENV-2 16681 strain
measurement description: DENV-2 antiviral assay (eGFP fluorescence, Vero cells)
Assay type: cell-based, Dengue virus
applied conditions: DENV-2 16681 eGFP, MOI 0.5, 3 days
pEC50: −log10 of the molar value.
Catalogue of molecules with associated pEC50
readout type: pEC50

INSERT INTO measurements (molecule, readout_type, quantitative_readout) VALUES
  ('COc1cc(NC(C(=O)N2CCc3c(C)cc(OC(F)(F)F)cc32)c2ccc(Cl)cc2OCCCC(=O)O)cc(-n2cncn2)c1 (single isomer, unassigned) [Compound 16B]', 'pEC50', 10.16),
  ('COc1cc(NC(C(=O)N2CCc3cc(OC)c(C(F)(F)F)cc32)c2ccc(F)cc2OCCO)cc(-n2cncn2)c1 (single isomer, unassigned) [Compound 2A]', 'pEC50', 6.57),
  ('COc1cc(NC(C(=O)N2CCc3ccc(C(F)(F)F)cc32)c2ccc(Cl)cc2OCCO)cc(-n2cncn2)c1 (single isomer, unassigned) [Compound 4A]', 'pEC50', 5.92),
  ('COc1cc(NC(C(=O)N2CCc3cc(F)c(C(F)(F)F)cc32)c2ccc(Cl)cc2OCCO)cc(-n2cncn2)c1 (single isomer, unassigned) [Compound 7A]', 'pEC50', 6.37);
